Assay: Cytotoxicity against human OVCAR5 cells
Assay type: functional
Conditions: OVCAR-5, read-out: pTGI (converted)
Cut-off 50 µM on TGI, inclusive. At or above means Met; below means Not met.

> print(dat)
                              smiles.string  category
1  COc1cc(/C=C/c2cc(O)c3c(c2)C[C@@H]2C(C)(C)[C@H](O)CC[C@@]2(C)O3)cc2[nH]cc(CC=C(C)C)c12   Not met
2  COc1cc(/C=C/c2cc(O)c3cc[nH]c3c2)cc2c1O[C@]1(C)CC[C@@H](O)C(C)(C)[C@H]1C2   Not met
3  COc1cc(/C=C/c2cc(O)c3ccn(C)c3c2)cc2c1O[C@]1(C)CC[C@@H](O)C(C)(C)[C@H]1C2       Met
4  COc1cc(/C=C/c2cc(O)c3c(c2)C[C@@H]2C(C)(C)[C@H](O)CC[C@@]2(C)O3)cc2c1ccn2C   Not met
5  CC1(C)[C@H](O)CC[C@@]2(C)Oc3c(O)cc(/C=C/c4cc(O)c5cc[nH]c5c4)cc3C[C@H]12       Met

Could you verify whether the entry "COc1cc(/C=C/c2cc(O)c3c(C/C=C(\C)CCC=C(C)C)c[nH]c3c2)cc2c1O[C@]1(C)CC[C@@H](O)C(C)(C)[C@H]1C2" shows TGI of no less than 50 µM? Met

Could you verify whether the entry "COc1cc(/C=C/c2cc(OC)c3ccn(C)c3c2)cc2c1O[C@]1(C)CC[C@@H](O)C(C)(C)[C@H]1C2" shows TGI of no less than 50 µM? Not met
